# assayed_system: BRAF^V600E (MEK1^SASA:BRAF^V600E monomer complex) (Homo sapiens, UniProt P15056, V600E)
# Construct: His6 (N); intein (C, cleaved yes); made in house; host or cells: insect cells (baculovirus)
# Sequence (P15056 445-723 V600E): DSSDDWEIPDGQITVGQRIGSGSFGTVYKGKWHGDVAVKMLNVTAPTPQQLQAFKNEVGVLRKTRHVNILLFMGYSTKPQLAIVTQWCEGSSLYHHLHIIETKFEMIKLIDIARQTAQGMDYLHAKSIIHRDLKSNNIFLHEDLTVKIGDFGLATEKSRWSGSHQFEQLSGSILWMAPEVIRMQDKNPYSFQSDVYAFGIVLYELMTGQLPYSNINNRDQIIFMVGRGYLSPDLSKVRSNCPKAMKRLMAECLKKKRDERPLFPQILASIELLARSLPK
# Sequence (Q02750 whole entry S218A/S222A partner): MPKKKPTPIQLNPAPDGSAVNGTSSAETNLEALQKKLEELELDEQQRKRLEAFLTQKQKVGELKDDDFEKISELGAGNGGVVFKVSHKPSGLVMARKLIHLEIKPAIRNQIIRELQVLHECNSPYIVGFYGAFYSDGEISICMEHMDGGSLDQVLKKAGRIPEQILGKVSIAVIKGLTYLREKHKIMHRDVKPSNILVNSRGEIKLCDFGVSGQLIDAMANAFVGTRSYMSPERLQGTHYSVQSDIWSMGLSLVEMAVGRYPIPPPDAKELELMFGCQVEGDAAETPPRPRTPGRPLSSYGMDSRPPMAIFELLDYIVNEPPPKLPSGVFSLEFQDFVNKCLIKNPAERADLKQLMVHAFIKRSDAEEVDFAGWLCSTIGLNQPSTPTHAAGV
# method: TR-FRET kinase inhibition assay (phosphorylation of biotinylated MEK1), BRAF V600E monomer complex
# Format: biochemical
# measurement_setup: 1 nM enzyme, 250 nM MEK1, 200 μM ATP, 40 min preincubation; three-parameter fit
pIC50: −log10 of the molar value.

chem_smiles	pIC50
CCN(C)S(=O)(=O)Nc1ccc(F)c(C(=O)c2c[nH]c3ncc(-c4cnc(C5CC5)nc4)cc23)c1F	6.49
O=C(c1c(F)ccc(NS(=O)(=O)N2CC[C@@H](F)C2)c1F)c1c[nH]c2ncc(-c3cnc(C4CC4)nc3)cc12	7.68

====

# assayed_system: BRAF^WT (MEK1^SASA:BRAF^WT:14-3-3 dimer complex) (Homo sapiens, UniProt P15056)
# Construct: His6 (N); made in house; host or cells: SF9 insect cells (baculovirus)
# Sequence (P15056 419-766, one chain of several): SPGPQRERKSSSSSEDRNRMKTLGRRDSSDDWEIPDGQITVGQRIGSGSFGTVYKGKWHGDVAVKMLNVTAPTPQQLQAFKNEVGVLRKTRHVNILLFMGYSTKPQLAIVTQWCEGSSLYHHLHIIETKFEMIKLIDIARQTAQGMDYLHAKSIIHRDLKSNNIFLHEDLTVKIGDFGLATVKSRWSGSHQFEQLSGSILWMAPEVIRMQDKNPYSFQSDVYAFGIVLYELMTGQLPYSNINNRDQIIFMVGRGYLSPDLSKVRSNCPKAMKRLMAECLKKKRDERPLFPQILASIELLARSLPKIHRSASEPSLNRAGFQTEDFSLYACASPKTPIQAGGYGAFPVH
# method: biochemical
# Format: biochemical
# measurement_setup: read-out: IC50 of BRAF^WT at 10 μM ATP; 10 μM ATP
pIC50: −log10 of the molar value.

compound	pIC50
CCN(C)S(=O)(=O)Nc1ccc(F)c(C(=O)c2c[nH]c3ncc(-c4cnc(C5CC5)nc4)cc23)c1F [PLX7904]	6.77

====

# assayed_system: ARAF^SSDD (MEK1^SASA:ARAF^SSDD-14-3-3ε dimer complex) (Homo sapiens, UniProt P10398, G300S/Y301D/Y302D)
# Construct: ARAF^274-606, G300S, Y301/302D-14-3-3 ε with N-terminal His6 and StrepII tags; His6 (N); StrepII (N); made in house; host or cells: SF9 insect cells (baculovirus)
# Sequence (P10398 274-606 G300S/Y301D/Y302D): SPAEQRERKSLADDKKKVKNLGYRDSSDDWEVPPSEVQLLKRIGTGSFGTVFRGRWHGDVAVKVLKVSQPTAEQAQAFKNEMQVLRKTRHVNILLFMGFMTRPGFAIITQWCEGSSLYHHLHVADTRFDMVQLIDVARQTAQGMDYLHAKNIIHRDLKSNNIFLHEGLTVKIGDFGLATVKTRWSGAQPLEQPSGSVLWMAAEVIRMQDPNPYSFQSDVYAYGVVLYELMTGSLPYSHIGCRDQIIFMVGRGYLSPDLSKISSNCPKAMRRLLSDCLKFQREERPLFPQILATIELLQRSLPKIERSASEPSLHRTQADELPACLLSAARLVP
# method: TR-FRET kinase inhibition assay (phosphorylation of biotinylated MEK1), ARAF dimer complex
# Format: biochemical
# measurement_setup: four-parameter fit; 200 μM ATP
Entries and their measured ARAF^SSDD nH (Hill slope) follow.
readout_type: ARAF^SSDD nH (Hill slope)

chem_smiles	reported
C[C@@H](NC(=O)c1ncnc(N)c1Cl)c1ncc(C(=O)Nc2cc(C(F)(F)F)c(Cl)cn2)s1	−1.4
CCN(C)S(=O)(=O)Nc1ccc(F)c(C(=O)c2c[nH]c3ncc(-c4cnc(C5CC5)nc4)cc23)c1F	−0.6
CCCS(=O)(=O)Nc1ccc(F)c(C(=O)c2c[nH]c3ncc(-c4ccc(Cl)cc4)cc23)c1F	−0.9
CC(C)(C)c1nc(-c2cccc(NS(=O)(=O)c3c(F)cccc3F)c2F)c(-c2ccnc(N)n2)s1	−1.1
Cc1ccc(C(=O)Nc2ccc(CN3CCN(C)CC3)c(C(F)(F)F)c2)cc1C#Cc1cnc2cccnn12	−1.2
CN(C)CCOc1ccc(-c2nc(-c3ccncc3)c(-c3ccc4c(c3)CC/C4=N\O)[nH]2)cc1	−0.6
Cc1ccc(NC(=O)c2ccnc(C(F)(F)F)c2)cc1-c1cc(OCCO)nc(N2CCOCC2)c1	−3.2
